Readout name: melting point

Nn1c(Cc2ccc(Cl)cc2)nnc1SCC(=O)Nc1cc(-c2c[nH]c3ccccc23)n[nH]1 [Compound 11d]: 240 to 241 °C
COc1ccc(-c2nnc(SCC(=O)Nc3cc(-c4c[nH]c5ccccc45)n[nH]3)n2N)cc1 [Compound 11e]: 238 to 240 °C
Nn1c(SCC(=O)Nc2cc(-c3c[nH]c4ccccc34)n[nH]2)nnc1-c1c[nH]c2ccccc12 [Compound 11n]: 230 to 232 °C
Nn1c(SCC(=O)Nc2cc(-c3c[nH]c4ccccc34)n[nH]2)nnc1-c1ccccc1Cl [Compound 11j]: 136 to 138 °C
Nn1c(SCC(=O)Nc2cc(-c3c[nH]c4ccccc34)n[nH]2)nnc1-c1ccc(F)cc1 [Compound 11p]: 209 to 212 °C
Nn1c(SCC(=O)Nc2cc(-c3c[nH]c4ccccc34)n[nH]2)nnc1-c1cccnc1 [Compound 11h]: 195 to 197 °C
Nn1c(SCC(=O)Nc2cc(-c3c[nH]c4ccccc34)n[nH]2)nnc1-c1ccccc1O [Compound 11q]: 263 to 266 °C

Q) Given Nn1c(SCC(=O)Nc2cc(-c3c[nH]c4ccccc34)n[nH]2)nnc1-c1ccc[nH]1 [Compound 11r] , state its recorded melting point.
A) 241 to 243 °C
